Each entry below carries its reported IC50.
Biological target: collagenase (Homo sapiens, UniProt P03956)
Construct: endogenous in cells
Sequence (P03956 100-469): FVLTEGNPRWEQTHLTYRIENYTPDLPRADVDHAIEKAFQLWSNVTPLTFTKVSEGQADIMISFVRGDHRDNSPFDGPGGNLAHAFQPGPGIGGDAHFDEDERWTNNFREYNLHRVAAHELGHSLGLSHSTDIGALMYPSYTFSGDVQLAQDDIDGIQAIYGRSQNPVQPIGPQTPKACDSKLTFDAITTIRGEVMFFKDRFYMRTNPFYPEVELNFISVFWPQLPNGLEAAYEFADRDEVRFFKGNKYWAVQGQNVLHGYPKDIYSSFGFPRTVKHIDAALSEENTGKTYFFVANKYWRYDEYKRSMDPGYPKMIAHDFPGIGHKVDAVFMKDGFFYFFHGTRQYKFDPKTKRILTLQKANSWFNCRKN
Assay: in vitro collagenase inhibiting activity (Test A)
Conditions: collagenase from culture of human synovial fibroblasts, trypsin-activated; substrate 14C-acetylated collagen type I from rat tail tendons; microtitre plate assay

- compound: "CNC(=O)[C@@H](NC(=O)C(CC(=O)NO)CC1CC1)C(C)(C)C (single isomer, unassigned)"
  measurementUnits: "nM"
  IC50: 7
- compound: "CNC(=O)[C@@H](NC(=O)C(CC(=O)NO)CC1CCCC1)C(C)(C)C (single isomer, unassigned)"
  measurementUnits: "nM"
  IC50: 5
- compound: "CNC(=O)[C@@H](NC(=O)C(CC(=O)NO)CC1CCC1)C(C)(C)C (single isomer, unassigned)"
  measurementUnits: "nM"
  IC50: 2
- compound: "CNC(=O)[C@@H](NC(=O)[C@H](CC1CCC1)C(CN1C(=O)N(C)C(C)(C)C1=O)C(=O)NO)C(C)(C)C (single isomer, unassigned)"
  measurementUnits: "nM"
  IC50: 1
- compound: "CNC(=O)[C@@H](NC(=O)[C@H](CC1CC1)C(CN1C(=O)N(C)C(C)(C)C1=O)C(=O)NO)C(C)(C)C (single isomer, unassigned)"
  measurementUnits: "nM"
  IC50: 1
